# tested_system: T1, 人4-1BB (human, UniProt Q07011 24-255)
# T1 construct: whole, on cells; also called TNFRSF9; CD137
# T1 sequence (Q07011 24-255): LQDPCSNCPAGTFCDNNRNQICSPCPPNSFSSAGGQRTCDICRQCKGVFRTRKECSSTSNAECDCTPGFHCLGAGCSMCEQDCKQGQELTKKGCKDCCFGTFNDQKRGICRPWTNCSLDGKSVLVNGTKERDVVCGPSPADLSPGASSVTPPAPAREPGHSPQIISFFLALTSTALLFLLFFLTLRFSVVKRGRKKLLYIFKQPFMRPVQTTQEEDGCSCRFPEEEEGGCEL
# test_summary: FACS on HEK293 cells expressing human 4-1BB, 1.0 ug/ml
measured_parameter: binding result

>>> assay_result("382A3E3-VH2-VL5 (antibody, IgG4, V domains shown, Humanized mAb; Only VH and VL are tied to it) VH: QVQLVESGGGVVQPGGSLRLSCAASGFTFSDYGMSWVRQAPGKGLEWVAFISNVAYGIFYADTVTGRFTISRDNSKNTLYLQMNSLRAEDTAVYYCAKDELGRFDYWGQGTLVTVSS VL: DIQLTQSPSFLSASVGDRVTITCHVSQNINIWLSWYQQKPGKAPKLLIYKASNLHTGVPSRFSGSGSGTEFTLTISSLQPEDFATYYCQQGQTFPRTFGGGTKVEIK")
"binds"
>>> assay_result("382A3E3-VH1-VL3 (antibody, IgG4, V domains shown, Humanized mAb; Only VH and VL are tied to it) VH: EVQLVESGGGLVQPGGSLRLSCAASGFTFSDYGMSWVRQAPGKGLEWVSFISNVAYGIFYADTVTGRFTISRDNAKNSLYLQMNSLRAEDTAVYYCARDELGRFDYWGQGTLVTVSS VL: DIQMTQSPSSLSASVGDRVTITCHVSQNINIWLSWYQQKPGKAPKLLIYKASNLHTGVPSRFSGSGSGTDFTLTISSLQPEDFATYYCQQGQTFPRTFGGGTKVEIK")
"binds"
